system: L1210 leukemia ip in BDF1 mice, survival T/C; assay: NCI In Vivo Anticancer Drug Screen. Data for tumor model L1210 Leukemia (intraperitoneal) in B6D2F1 (BDF1) mice; details: endpoint: mean survival time; dose: 75.0 mg/kg/injection; schedule: Q01DX009 (ip); vehicle: Klucel (hydroxypropylcellulose) (HPC); higher = longer survival
Toxic doses and inconclusive results are not listed.
PARAMETER: T/C

Recorded T/C, per entry:
MOLECULE | T/C
O=C1C=C(c2ccccc2)OC(c2ccccc2)C1 (stereo not given) | 97 % of control
O=C(/C=C/c1ccccc1)NN1CCOCC1 | 92 % of control
c1ccc2c(c1)Sc1ccccc1N2C[C@H]1CCCN2CCCC[C@H]12 | 102 % of control
Cc1ccc(C(=O)C2C3C=CC(C3)C2C(=O)c2ccc(C)cc2)cc1 (stereo not given) | 95 % of control

Continue with the next molecule.
**Query** Output T/C of CN(C)N=Nc1ccccc1C(=O)NNC(N)=S
**Result** 89 % of control

---

system: L1210 leukemia ip in BDF1 mice, survival T/C; experiment: NCI In Vivo Anticancer Drug Screen. Data for tumor model L1210 Leukemia (intraperitoneal) in B6D2F1 (BDF1) mice; details: endpoint: mean survival time; dose: 75.0 mg/kg/injection; schedule: Q01DX001 (ip); vehicle: carboxymethylcellulose (CMC)
Inconclusive results and toxic doses are left out. Rule as the data show it: active = T/C of 150% or more; inactive = T/C below 125%.
Your answer must be one of the following: active, inactive

Consider the worked cases shown below.
COMPOUND | GROUP
CC(C)C(COC(=O)c1ccc(N)cc1)NC1CCCCC1C (centres undefined) | inactive
O=NN(CCCl)C(=O)Nc1ccc(C(F)(F)F)cc1 | active
COC(=O)/C=C(\C(=O)OC)c1c(-c2ccccc2)[nH]c2ccccc12 | inactive

Please turn your attention to the following entry.
**Query** Short answer needed: outcome of this test for CCCC1(CC)C(=O)NC(=S)N(C)C1=O (centres undefined) ?
**Result** inactive

---

tested on: L1210 leukemia ip in BDF1 mice, survival T/C; test: NCI In Vivo Anticancer Drug Screen. Data for tumor model L1210 Leukemia (intraperitoneal) in B6D2F1 (BDF1) mice; details: endpoint: mean survival time; dose: 200.0 mg/kg/injection; schedule: Q01DX001 (ip); vehicle: other; higher = longer survival
Toxic doses and inconclusive results are not listed.
PARAMETER: T/C

INPUT_SMILES | RESULT
Cc1ccc(OCC(=O)Nc2ccc(Cl)cc2)c(C)c1 | 98 % of control
CCCCCCCCCCCCOc1ccc(C(=O)O)cc1 | 93 % of control
CCN(CC)c1ccc(N=C2C=C(C(=O)Nc3cccc(Cl)c3)C(=O)c3ccccc32)c(C)c1 | 92 % of control
CCSc1nc(/C=N/NS(=O)(=O)c2ccccc2)c(F)c(=O)[nH]1 | 101 % of control

**Query** Output T/C of CC(=O)Nc1ccc(NC(=O)c2ccc(C(=O)Nc3ccc(NC(C)=O)cc3)cc2)cc1
**Result** 93 % of control

**Query** Output T/C of COc1c(OC)c(OC)c2c(=O)cc(-c3ccc4c(c3)OCO4)oc2c1OC
**Result** 100 % of control

**Query** Output T/C of Cc1ccc(NC(=S)NC(=O)COc2ccccc2)cc1C
**Result** 101 % of control

**Query** Output T/C of CNNC(=O)Cc1ccccc1
**Result** 108 % of control

**Query** Output T/C of CN(c1ccccc1)[N+](=O)[O-]
**Result** 97 % of control

**Query** Output T/C of Oc1ccc(C=NCCN=Cc2ccc(O)cc2)cc1
**Result** 103 % of control

**Query** Output T/C of Cn1c(=O)c2c(nc(Cc3ccc(NC(=O)c4ccc(C(=O)Nc5ccc(Cc6nc7c(c(=O)n(C)c(=O)n7C)n6C)cc5)cc4)cc3)n2C)n(C)c1=O
**Result** 94 % of control

**Query** Output T/C of O=Cc1cc(O)c(O)c(O)c1
**Result** 101 % of control
